These data points were gathered from PubChem BioAssay.

- Test system: wheat germ agglutinin (Triticum aestivum), Alexa647-labelled
- MEASUREMENT NOTES: wheat germ agglutinin binders on compound microarrays, profiling panel, artefact control for SMM control-protein annotation, biochemical, small-molecule microarray, 635/667 nm fluorescence (AID 1140);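 further: score merges 667 nm feature emission with signal to noise over triplicate slides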
- EXPERIMENTAL PARAMETERS: WGA-A647 binding, 635 nm fluorescence, higher = more signal
MEASURED ATTRIBUTE: composite z-score

COC(=O)[C@@H]1CC[C@H](C)[C@@H](c2ccc(Br)cc2)N1C[C@@H](O)CN=[N+]=[N-] ... -0.0107
CCOC(=O)[C@H](CC(C)C)NC(=O)CCC1CC(OC(=O)NCc2ccc3c(c2)OCO3)CC2(CCCC(COC(=O)NCCC(C)C)O2)O1 (stereo partly specified) ... 0.182
CC(C)=CCCC(C)=CCON=C1[C@H]2CCn3c(=O)n(-c4ccccc4)c(=O)n3[C@H]2[C@H](O)[C@@H]2O[C@H]12 ... 0.505

[in] # input compound: CCN1C(=O)[C@H]2[C@H]3[C@H](O)[C@H](O)CC(=NOCC=C(C)CCC=C(C)C)[C@@H]3CC[C@H]2C1=O ; wanted: its composite z-score
[out] -0.207

[in] Same for COC(=O)[C@H](C)NC(=O)CCC1CC(OC(=O)NCc2cccc3ccccc23)CC2(CCCC(COC(=O)NCc3ccccc3)O2)O1 (stereo partly specified)
[out] 0.22

[in] Record: CCOC(=O)[C@H](CC(C)C)NC(=O)CCC1CC(OC(=O)NCCc2ccc(F)cc2)CC2(CCCC(COC(=O)NCCOC)O2)O1 (stereo partly specified)
[out] 0.829

[in] Can you check CCOC(=O)[C@H](Cc1ccccc1)NC(=O)CCC1CC(OC(=O)NCc2cccc3ccccc23)CC2(CCCC(COC(=O)NCCOc3ccccc3)O2)O1 (stereo partly specified) next?
[out] 0.268

[in] CC(=O)OC[C@H]1O[C@@H](ON=C2[C@H]3CCn4c(=O)n(-c5ccccc5)c(=O)n4[C@H]3[C@H](O)[C@@H]3O[C@H]23)[C@H](OC(C)=O)[C@@H](OC(C)=O)[C@@H]1OC(C)=O ?
[out] 0.169

[in] Now the compound COc1cccc([C@H]2Oc3ccc(OC)cc3C(=NOCC[C@@H]3C=C[C@H](OC(C)=O)[C@@H](COC(C)=O)O3)[C@@H]2O)c1
[out] 0.274

[in] Consider next the compound CC(C)=NOC[C@@H](O)[C@H]1O[C@@H]2OC(C)(C)O[C@@H]2[C@H]1O in the same way.
[out] 0.0212

[in] Please give the result for COc1ccc(COC(=O)NN=C2C[C@@H](O)[C@@H](O)[C@@H]3[C@@H]4C(=O)N(Cc5ccc6c(c5)OCO6)C(=O)[C@@H]4CC[C@H]23)cc1 too.
[out] 0.801

[in] For CC(C)(C)N1C(=O)[C@H]2[C@@H]3C(=CC[C@H]2C1=O)C(=O)[C@H]1O[C@H]1[C@H]3O then?
[out] 0.844

---

- MEASUREMENT NOTES: S. cerevisiae growth modulation with rapamycin, primary screen, strain BY4716, OD600, 96 h (AID 1091); further: test concentration not given here
- EXPERIMENTAL PARAMETERS: higher = more signal, called active from +8 up or from −8 down
Measured z-score of individual entries
Keep the answer to the number alone.

CON=C(C)CCC(=O)OC[C@H]1O[C@H](C#Cc2ccccc2)C=C[C@@H]1Oc1ccc(C)cc1 ... 1.52
O=C1C[C@@H](O)[C@@H](O)[C@@H]2[C@@H]3C(=O)N(c4ccc(F)cc4F)C(=O)[C@@H]3CC[C@H]12 ... -0.147
CC(=O)OC[C@H]1O[C@@H](ON=C(C)CCC(=O)OC[C@H]2O[C@H](C#Cc3ccccc3)C=C[C@@H]2Oc2ccc(C)cc2)[C@H](OC(C)=O)[C@@H](OC(C)=O)[C@@H]1OC(C)=O ... -0.211
COc1ccc(OC[C@H]2CN3[C@@H](CC[C@@H](C)[C@@H]3c3ccc(Br)cc3)C(=O)O2)cc1 ... 0.179
O=C(NN=C1C[C@@H](O)[C@@H](O)[C@@H]2[C@@H]3C(=O)N(c4ccc(F)cc4F)C(=O)[C@@H]3CC[C@H]12)OCc1ccccc1 ... -1.69
COC(=O)C(C(=O)OC)C1CCCC(=O)C1 (configuration not stated) ... 0.751

Shift focus to the following entry.
[in] Which z-score value is on record for C[C@@H]1CC[C@H]2C(=O)N3[C@@H](CC[C@@H](C)[C@@H]3c3ccc(Br)cc3)C(=O)N2[C@H]1c1ccc(Br)cc1 ?
[out] 0.805
